Molecular target: Genome polyprotein (dengue virus type 2)
Assay: flavivirus cap methylation enzyme inhibition – biochemical, confirmation dose response, primary screen (AID 588689)
Type: functional
Active and inactive are the calls of the source.
For each of the compounds below, state its IC50.

See these solved cases before continuing.
| compound | measuredTarget | IC50 |
| --- | --- | --- |
| CSc1nnc(-c2ccco2)c(-c2ccco2)n1 | Genome polyprotein (dengue virus type 2) | 86.8 µM (active) |
| Cc1nn(-c2ccccc2)c2c1C(c1cccs1)C(C#N)=C(N)O2 (centres undefined) | Genome polyprotein (dengue virus type 2) | > 100 µM (active) |
| Cc1ccc(C(c2c(O)n3c(nc2=O)SCC3)c2c(O)n3c(nc2=O)SCC3)cc1 | Genome polyprotein (dengue virus type 2) | 84.2 µM (active) |

Now for a further compound.
# get_value(readout= IC50, system= Genome polyprotein (dengue virus type 2)) for O=C1N=C(NS(=O)(=O)Cc2ccccc2)S/C1=C1\C(=O)Nc2ccccc21
51.6 µM (active)

----------
Target: Orexin receptor type 2 (Homo sapiens, UniProt O43614)
Sequence (O43614 whole entry): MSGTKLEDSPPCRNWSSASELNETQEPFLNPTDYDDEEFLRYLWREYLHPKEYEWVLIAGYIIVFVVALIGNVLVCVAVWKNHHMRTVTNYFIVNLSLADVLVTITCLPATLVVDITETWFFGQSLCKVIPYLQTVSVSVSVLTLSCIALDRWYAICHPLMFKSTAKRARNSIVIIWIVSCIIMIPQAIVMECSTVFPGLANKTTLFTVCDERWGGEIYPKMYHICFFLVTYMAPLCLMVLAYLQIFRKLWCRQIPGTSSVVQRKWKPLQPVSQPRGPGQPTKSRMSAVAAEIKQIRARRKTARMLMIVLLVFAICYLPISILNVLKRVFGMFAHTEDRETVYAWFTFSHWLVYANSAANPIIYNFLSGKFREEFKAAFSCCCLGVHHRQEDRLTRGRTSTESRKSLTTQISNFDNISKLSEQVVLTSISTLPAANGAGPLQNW
Test: Counterscreen assay for antagonists of the orexin 1 receptor (OX1R; HCRTR1): Homogeneous Time Resolved Fluorescence (HTRF)-based cell-based dose response assay for antagonists of the orexin 2 receptor (OX2R; HCRTR2), run by assay provider.
Type: functional
Calls of active or inactive are those of the source.
Give your call using only these classes: active, inactive

Some solved cases for reference:
| molecule | measuredTarget | qualitativeLabel |
| --- | --- | --- |
| CN(Cc1ccccc1)C(=O)c1[nH]cnc1C(=O)N[C@@H](Cc1ccccc1)C(=O)OC(C)(C)C | Orexin receptor type 2 (Homo sapiens, UniProt O43614) | inactive |
| O=c1cc(CN2CC(O)Cc3ccc4ccccc4c32)nc2sccn12 (stereo not given) | Orexin receptor type 2 (Homo sapiens, UniProt O43614) | inactive |
| CCCCNC(=O)CCC(=O)NNc1nc2ccccc2c2nc(-c3ccccc3)nn12 | Orexin receptor type 2 (Homo sapiens, UniProt O43614) | inactive |
| Cc1cc(O)cc2c(=O)c3ccccc3sc12 | Orexin receptor type 2 (Homo sapiens, UniProt O43614) | active |

For the next question, use this molecule.
Outcome? Cc1csc(-c2coc3cc(O)cc(C)c3c2=O)n1
inactive

----------
Target: UniProtKB Q2TB90
Sequence (Q2TB90 whole entry): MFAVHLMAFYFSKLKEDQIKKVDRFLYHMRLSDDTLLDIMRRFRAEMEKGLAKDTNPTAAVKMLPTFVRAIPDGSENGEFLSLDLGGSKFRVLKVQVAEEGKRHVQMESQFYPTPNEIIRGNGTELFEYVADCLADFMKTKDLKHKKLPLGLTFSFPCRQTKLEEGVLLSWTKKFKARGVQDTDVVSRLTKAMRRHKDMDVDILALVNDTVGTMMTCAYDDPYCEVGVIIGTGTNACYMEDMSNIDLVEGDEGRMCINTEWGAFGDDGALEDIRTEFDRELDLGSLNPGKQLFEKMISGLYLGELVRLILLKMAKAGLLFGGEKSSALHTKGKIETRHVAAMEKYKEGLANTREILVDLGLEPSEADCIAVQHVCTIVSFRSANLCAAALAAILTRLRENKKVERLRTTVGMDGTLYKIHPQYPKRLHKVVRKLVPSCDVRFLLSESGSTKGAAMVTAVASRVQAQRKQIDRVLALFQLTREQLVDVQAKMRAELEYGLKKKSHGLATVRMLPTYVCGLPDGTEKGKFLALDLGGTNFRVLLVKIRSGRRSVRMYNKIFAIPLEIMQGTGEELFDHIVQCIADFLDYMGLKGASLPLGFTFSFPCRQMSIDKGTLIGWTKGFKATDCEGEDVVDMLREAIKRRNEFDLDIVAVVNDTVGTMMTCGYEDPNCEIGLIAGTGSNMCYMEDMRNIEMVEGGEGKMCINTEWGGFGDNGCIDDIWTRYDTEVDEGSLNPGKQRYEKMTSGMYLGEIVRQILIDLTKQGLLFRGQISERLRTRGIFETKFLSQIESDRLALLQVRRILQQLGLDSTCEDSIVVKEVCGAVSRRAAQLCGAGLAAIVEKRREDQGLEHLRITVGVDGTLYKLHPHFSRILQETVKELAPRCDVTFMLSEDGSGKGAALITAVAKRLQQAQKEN
Experiment: inhibition of HKDC1 glucose phosphorylation – biochemical, W721R variant, dose response (AID 504729)
Assay type: functional
The source made the active and inactive calls.
The reply should name one outcome from 1 for active, 0 for inactive

Example entries begin here.
| molecule | qualitativeLabel |
| --- | --- |
| COc1ccc(-n2c(C)cc(C(=O)CCl)c2C)cc1 | 0 |
| COc1ccc(NC(=O)CSc2ccc(-c3ccco3)nn2)c(OC)c1 | 1 |
| O=C1C=C(N2CCCCC2)c2ccccc2C1=O | 1 |

Now for another entry.
Could you check what this test reported for CC(=O)NC1C(=O)N(CCN2CCOCC2)c2ccc(F)cc21 (centres undefined) ?
1

----------
Give EC50 for every item shown.
System: H4
Experiment: Luminescence Cell-Based Dose Response HTS to Identify Activators of 5'UTR Stem-Loop Driven Prion Protein mRNA Translation in H4 Neuroglioblastoma Cells. [Related pubchem assays: 1829 (Project Summary), 1814 (Primary HTS)]
Type: functional
Settings: Homo sapiens
Activity calls are given as the source filed them.

Some compounds with known EC50 results, for comparison:
| compound | measuredTarget | val |
| --- | --- | --- |
| CSc1ccc(C2c3[nH]c4ccccc4c3CCN2C(=O)c2cc(C)n(C)n2)cc1 (stereo not drawn) | H4 | 11.8 µM (active) |
| Cc1ccc2nc3ccc(N4CCCC4)nn3c(=O)c2c1 | H4 | > 120 µM (not active) |
| COc1cccc(-c2nc(-c3ccc4c(c3)NC(=O)CO4)cs2)c1 | H4 | 10.8 µM (active) |
| Cc1ccc(-c2cn(-c3ccccc3)c(SCC(=O)NC3CCS(=O)(=O)C3)n2)cc1C (stereo not drawn) | H4 | 0.301 µM (active) |
| CC1CCN(C(C(=O)NC2CCCCC2)c2cc3c(cc2[N+](=O)[O-])OCO3)CC1 (stereo not drawn) | H4 | 22.1 µM (active) |
| CC(C)n1nnnc1SCC(=O)c1ccc2c(c1)OCCO2 | H4 | > 120 µM (not active) |
| COc1cccc(NC(=O)C(=O)N/N=C(\C)CC(=O)Nc2ccc(NC(C)=O)cc2)c1 | H4 | 25.6 µM (active) |

Here's the next entry for you.
Name the recorded EC50 for c1ccc(Cn2c(-c3ccco3)nc3nc4ccccc4nc32)cc1 .
> 120 µM (not active)
